B1: Hairpin Ribozyme (parent)
chain: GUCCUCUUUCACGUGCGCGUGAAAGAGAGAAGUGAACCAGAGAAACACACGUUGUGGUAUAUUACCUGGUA

Variants of: B1
experiment_summary: self-cleavage, relative activity (ratio to wild type); higher = more cleavage; co-transcriptional
value_type: self-cleavage
Output: the number by itself.

stdin: Please look up its self-cleavage: U33G U55C
stdout: 0.117

stdin: Please give the measured self-cleavage for this variant: A11C A35U
stdout: 0.643

stdin: Give the measured self-cleavage of G19C U63G .
stdout: 0.123

stdin: Could you share which self-cleavage value was measured for U2G A44G ?
stdout: 0.0352

stdin: Quick one: self-cleavage for G19A G68A ?
stdout: 0.265

stdin: Param item = A39G A41C ; retrieve measured self-cleavage.
stdout: 0.267

stdin: Please report the recorded self-cleavage for U14G U53A .
stdout: 0.835

stdin: Request the reported self-cleavage associated with A28C G68C
stdout: 0.309

stdin: Requested field: self-cleavage. Item: A28C G34C
stdout: 1.5

stdin: Requested field: self-cleavage. Item: A24G C37G
stdout: 0.359

stdin: Reported self-cleavage, variant G15U A71G : ____
stdout: 1.12

stdin: Can you share its self-cleavage? I mean this variant: A26C C38A
stdout: 0.163

stdin: Which self-cleavage value belongs to U9C C38A ?
stdout: 0.225

stdin: Need self-cleavage of A23C U63A , thanks.
stdout: 0.238

stdin: State the recorded self-cleavage for this entry: U60C U70C
stdout: 1.28

stdin: Need self-cleavage, item G32A G34A
stdout: 0.07

stdin: What does the record list as self-cleavage for C4U A49U ?
stdout: 0.128

stdin: I would be grateful if you could share the reported self-cleavage for C3A C12G .
stdout: 0.636

stdin: For the variant shown here, C12A A43C , give the reported self-cleavage.
stdout: 0.257

stdin: So what's the measured self-cleavage for this one? C48G U60G
stdout: 0.108

stdin: Query (variant): U20A G27U ; field requested: self-cleavage
stdout: 0.203

stdin: What measured self-cleavage goes with G57A A61U ?
stdout: 0.143
